# SYSTEM NAME: DNA polymerase III PolC-type (Bacillus subtilis (strain 168))
# ASSAY METHOD TEXT: qHTS Validation Assay for the Inhibitors of DNA Replication in Gram-Positive Bacteria (AID 485295); further: potency means the concentration at half of the fitted maximal effect
# RUN CONDITIONS: Gram-positive bacterial DNA replication assay; series mostly up to 57.1 µM
Calls of active or inactive are those of the source. The call rests on the fitted dose curve; in most records, active means well fitted inhibition curve with a large enough effect; inconclusive means small, poorly fitted or top-dose-only effect; inactive means flat fitted curve, though single readings scatter.
PROPERTY NAME: Potency

[[record]]
molecule = "CC(C)NCC(O)c1cc(O)cc(O)c1 (centres undefined)"
result = "inactive"

[[record]]
molecule = "CCN(CC)CCNC(=O)c1cc(S(C)(=O)=O)ccc1OC"
result = "inactive"

[[record]]
molecule = "CNCCC(Oc1ccccc1OC)c1ccccc1 (centres undefined)"
result = "inactive"

[[record]]
molecule = "C[n+]1cc2c3c(ccc2c2ccc4cc5c(cc4c21)OCO5)OCO3"
result = "8.44 µM (active)"


---

# ASSAY METHOD TEXT: qHTS of pediatric cancer cell lines to identify multiple opportunities for drug repurposing: Primary screen for BT-37 cells (AID 1347094)
# RUN CONDITIONS: BT-37 viability, CellTiter-Glo luminescence, 48 h; series mostly up to 57.3 µM
Inconclusive results are not listed. The source made the active and inactive calls. Calls follow the shape of the dose curve; as a rule, active = well fitted cell-killing curve with a large enough effect; inconclusive = small, poorly fitted or top-dose-only effect; inactive = flat fitted curve, though single readings scatter.
Pick one and only one: True (active), False (inactive)

Q. Look up the recorded call for NC/C=C/C(=O)O in this test.
A. False

Q. What was the test verdict on N[C@@H](COP(=O)(O)O)C(=O)O ?
A. False

Q. Test call for this compound, please: CC(C)COCC(CN(Cc1ccccc1)c1ccccc1)N1CCCC1 (stereo not drawn)
A. True

Q. Hey, what did the test say about Cc1ccc(=O)n(-c2ccccc2)c1 ?
A. False

Q. Query: recorded result category for CCCN(CCC)C(=O)C(CCC(=O)O)NC(=O)c1ccccc1 (stereo not drawn) in this test
A. False

Q. Field: outcome | Entry: Nc1c2c(nc3ccccc13)CCCC2O (stereo not drawn)
A. False

Q. Which outcome was assigned to CCN1CCc2nc(N)oc2CC1 in this test?
A. False

Q. Which outcome did this test record for the compound NC(=O)N1c2ccccc2C=Cc2ccccc21 ?
A. False

Q. Could you kindly confirm the outcome this assay logged for NC1=NCC2c3ccccc3Cc3ccccc3N12 (stereo not drawn) ?
A. False

Q. Which outcome was assigned to CC1=C(C)C(=O)C(CCCCC#CCCCC#CCO)=C(C)C1=O in this test?
A. False

Q. # lookup: test call for CN(C)CC[C@@H](c1ccc(Br)cc1)c1ccccn1
A. False

Q. Outcome logged for CN=C(NC#N)NCCSCc1nc[nH]c1C in this assay:
A. False

Q. Test call, this compound: CCCCNc1ccc(C(=O)OCCN(C)C)cc1
A. False

Q. For this compound, state the assay outcome: Brc1c(NC2=NCCN2)ccc2nccnc12
A. False

Q. Record request — test call for CN/C(=C\[N+](=O)[O-])NCCSCc1ccc(CN(C)C)o1
A. False

Q. Given CC1=NS(=O)(=O)c2cc(Cl)ccc2N1 , state the outcome it received in this test.
A. False

Q. Please state the recorded outcome for this compound: Cc1cc(C)c(/C=C2\C(=O)Nc3ccccc32)[nH]1
A. False

Q. Write down the call the test reported for this compound. Item: CC(C(=O)O)c1ccc(CC2CCCC2=O)cc1 (stereo not drawn)
A. False

---

# Test system: TAB165
# ASSAY METHOD TEXT: qHTS profiling for inhibitors of Plasmodium falciparum proliferation (AID 504749); further: nearly all actives have a fitted effect of over 60% in size
# RUN CONDITIONS: P. falciparum in erythrocytes, SYBR Green DNA, 72 h; series mostly up to 28.7 µM
Inconclusive results are not listed. Activity calls are given as the source filed them. Calls follow the shape of the dose curve; as a rule, active = well fitted inhibition curve with a large enough effect; inconclusive = small, poorly fitted or top-dose-only effect; inactive = flat fitted curve, though single readings scatter.
PROPERTY NAME: outcome

Consider the following illustrative entries.
[[record]]
cpd_smiles = "CCN(CC)CCNC(=O)c1ccc(NC(C)=O)cc1"
result = "inactive"

[[record]]
cpd_smiles = "CSc1ccc(C(=O)c2[nH]c(=O)[nH]c2C)cc1"
result = "inactive"

[[record]]
cpd_smiles = "CCO/C([O-])=N/c1c[n+](N2CCOCC2)no1"
result = "inactive"

[[record]]
cpd_smiles = "CN(C)CCOC(=O)COc1ccc(Cl)cc1"
result = "inactive"

[[record]]
cpd_smiles = "O=C(CCNNC(=O)c1ccncc1)NCc1ccccc1"
result = "inactive"

[[record]]
cpd_smiles = "C[n+]1cc2c3c(ccc2c2ccc4cc5c(cc4c21)OCO5)OCO3"
result = "inactive"


Read the next record carefully.
Q. GET outcome | system: TAB165 | item: CN=C(NC#N)NCCSCc1nc[nH]c1C
A. inactive

---

# Test system: PAD
# ASSAY METHOD TEXT: qHTS profiling for inhibitors of Plasmodium falciparum proliferation (AID 504749); further: nearly all actives have a fitted effect of over 60% in size
# RUN CONDITIONS: P. falciparum in erythrocytes, SYBR Green DNA, 72 h; series mostly up to 28.7 µM
Inconclusive results are not listed. Active and inactive are the calls of the source. Calls come from the whole dose curve; as a rule, active = well fitted inhibition curve with a large enough effect; inconclusive = small, poorly fitted or top-dose-only effect; inactive = flat fitted curve, though single readings scatter.
Please answer using one outcome listed in active, inactive

Q. Entry CSc1ccc(C(=O)c2[nH]c(=O)[nH]c2C)cc1 : call = ?
A. inactive

Q. How was CCN(CC)CCNC(=O)c1cc(S(C)(=O)=O)ccc1OC classified in this test?
A. inactive

Q. Lab log entry: Nc1c2c(nc3ccccc13)CCCC2O (stereo not given) — outcome as called in the assay?
A. inactive

Q. Query: recorded result category for CCNC(=O)N1CCN(CCCC(c2ccc(F)cc2)c2ccc(F)cc2)CC1 in this test
A. active

Q. Please state the recorded outcome for this compound: CCN(CC)CCOCCOC(=O)C1(c2ccccc2)CCCC1
A. active

Q. What is the recorded call for this compound in the test? NS(=O)(=O)c1cc2c(cc1Cl)NC(C1CC3C=CC1C3)NS2(=O)=O (stereo not given)
A. inactive

Q. Field: outcome | Entry: C[C@H](CS)C(=O)N1CCC[C@H]1C(=O)O
A. inactive

Q. Look up the recorded call for O=C(O)CN(CCOCCOCCN(CC(=O)O)CC(=O)O)CC(=O)O in this test.
A. inactive

Q. Please state the recorded outcome for this compound: CC(N=C(NC#N)Nc1ccncc1)C(C)(C)C (stereo not given)
A. inactive

Q. Which result was noted for this compound in the test: NC/C=C/C(=O)O
A. inactive

Q. // outcome(item) with item = CC(=O)[C@@]1(O)CC[C@H]2[C@@H]3CCC4=CC(=O)CC[C@]4(C)[C@H]3CC[C@@]21C
A. inactive

Q. Which result was noted for this compound in the test: CCn1ccnc1CC1COc2ccccc2O1 (stereo not given)
A. inactive

Q. State the result this test recorded for CC1=NS(=O)(=O)c2cc(Cl)ccc2N1 .
A. inactive

Q. Hi, sorry to bother you, what did the test record for Nc1nc(N)c2nc(-c3ccccc3)c(N)nc2n1 ?
A. inactive

Q. Assay outcome for CC(C)COCC(CN(Cc1ccccc1)c1ccccc1)N1CCCC1 (stereo not given) : what was it?
A. inactive

---

# System: 7G8
# ASSAY METHOD TEXT: qHTS profiling for inhibitors of Plasmodium falciparum proliferation (AID 504749); further: nearly all actives have a fitted effect of over 60% in size; further: potency means the concentration at half of the fitted maximal effect
# RUN CONDITIONS: P. falciparum in erythrocytes, SYBR Green DNA, 72 h; series mostly up to 28.7 µM
Records with an inconclusive call do not appear. The source made the active and inactive calls. Calls come from the whole dose curve; as a rule, active = well fitted inhibition curve with a large enough effect; inconclusive = small, poorly fitted or top-dose-only effect; inactive = flat fitted curve, though single readings scatter.
PROPERTY NAME: Potency

Look over these answered cases.
[[record]]
molecule = "COCCOC(=O)C1=C(C)NC(C)=C(C(=O)OC(C)C)C1c1cccc([N+](=O)[O-])c1 (stereo unspecified)"
result = "11.2 µM (active)"

[[record]]
molecule = "NC/C=C/C(=O)O"
result = "inactive"

[[record]]
molecule = "NC(=O)c1ncn([C@@H]2O[C@H](CO)[C@@H](O)[C@H]2O)c1O"
result = "inactive"

[[record]]
molecule = "CCN(Cc1ccncc1)C(=O)C(CO)c1ccccc1 (stereo unspecified)"
result = "inactive"

[[record]]
molecule = "CC(=O)Oc1cc(C(C)C)c(OCCN(C)C)cc1C"
result = "inactive"


Q. Supply recorded Potency for CCn1ccnc1CC1COc2ccccc2O1 (stereo unspecified) here.
A. inactive

---

# System: PC49
# ASSAY METHOD TEXT: qHTS profiling for inhibitors of Plasmodium falciparum proliferation (AID 504749); further: nearly all actives have a fitted effect of over 60% in size
# RUN CONDITIONS: P. falciparum in erythrocytes, SYBR Green DNA, 72 h; series mostly up to 28.7 µM
Inconclusive results are not listed. Active and inactive are the calls of the source. Calls come from the whole dose curve; as a rule, active = well fitted inhibition curve with a large enough effect; inconclusive = small, poorly fitted or top-dose-only effect; inactive = flat fitted curve, though single readings scatter.
Your reply should match one of these outcome classes. YES (active), NO (inactive)

Q. Called result for CC(=O)Nc1nnc(S(N)(=O)=O)s1
A. NO

Q. Could you check what this test reported for O=C(CCCN1CCC(O)(c2cccc(C(F)(F)F)c2)CC1)c1ccc(F)cc1 ?
A. YES

Q. Call for entry CN=C(NC#N)NCCSCc1nc[nH]c1C :
A. NO

Q. Hi team, can someone confirm the assay call for CC1=C(C)C(=O)C(CCCCC#CCCCC#CCO)=C(C)C1=O ?
A. NO

Q. # fetch the recorded call for OCCN1CCN(CCCN2c3ccccc3C=Cc3ccccc32)CC1 here
A. YES

Q. // outcome(item) with item = CCN1CCC[C@H]1CNC(=O)c1c(O)c(Cl)cc(Cl)c1OC
A. NO

Q. Could you check what this test reported for COCCOC(=O)C1=C(C)NC(C)=C(C(=O)OC(C)C)C1c1cccc([N+](=O)[O-])c1 (stereo unspecified) ?
A. NO

Q. Returns: the outcome recorded for CNC1(C)C2CCC(C2)C1(C)C (stereo unspecified) in this assay.
A. NO

Q. Given Cc1nnc(SCC2=C(C(=O)O)N3C(=O)[C@@H](NC(=O)Cn4cnnn4)[C@H]3SC2)s1 , state the outcome it received in this test.
A. NO

Q. Per the records of this test, what outcome belongs to Cc1ccc(Cl)c(Nc2ccccc2C(=O)O)c1Cl ?
A. NO

Q. Look up the recorded call for CC(=O)[C@]1(O)Cc2c(O)c3c(c(O)c2[C@@H](O[C@H]2C[C@H](N)[C@H](O)[C@H](C)O2)C1)C(=O)c1ccccc1C3=O in this test.
A. YES

Q. // outcome(item) with item = NS(=O)(=O)c1cc2c(cc1Cl)NC(C1CC3C=CC1C3)NS2(=O)=O (stereo unspecified)
A. NO

Q. What classification did CCOC(=O)c1cnc2c(cnn2CC)c1NN=C(C)C end up with in this test?
A. NO

Q. Check the results log: what was the call for CCN(CC)CC(=O)Nc1c(C)cccc1C ?
A. NO

Q. Entry COc1ccc([C@@H]2Sc3ccccc3N(CCN(C)C)C(=O)[C@@H]2OC(C)=O)cc1 : call = ?
A. NO

Q. # fetch the recorded call for O=C(CCNNC(=O)c1ccncc1)NCc1ccccc1 here
A. NO
